Source listed as patent US10711002B2.

- system: PRKCA (PKC alpha) (Homo sapiens)
- measurementNotes: High-throughput kinase assay
- Type: biochemical
- runParameters: 100 nM; read-out: Percent inhibition of kinase activity in vitro, PRKCA (PKC alpha)
Hi, to clarify the labels: Y covers inhibition at 0.1 µM from 40% upward, N covers anything below 40%.

## Task For this compound, is measured inhibition at 0.1 µM 40% or higher? `O=c1c2ccccc2[se]n1-c1nc(NC2CCCCC2)c2nc[nH]c2n1`
## Result Y

## Task For this compound, is measured inhibition at 0.1 µM 40% or higher? C[C@@H]1C(Nc2nc(-n3[se]c4ccccc4c3=O)nc3[nH]cnc23)C[C@H]2C[C@@H]1C2(C)C (some centres unmarked)
## Result Y

## Task For this compound, is measured inhibition at 0.1 µM 40% or higher? O=c1c2ccccc2[se]n1-c1nc(NC2CC[Se]C2)c2nc[nH]c2n1 (centres unmarked)
## Result Y

## Task For this compound, is measured inhibition at 0.1 µM 40% or higher? O=C1c2ccccc2CN1c1nc(NC2CCCCC2)c2nc[nH]c2n1 [SLLN-6C, reference compound]
## Result N

## Task For this compound, is measured inhibition at 0.1 µM 40% or higher? `O=c1c2ccccc2[se]n1-c1nc(N[C@H]2CC[Se]C2)c2nc[nH]c2n1`
## Result Y

* * *

For each of the compounds below, state its inhibition at 0.1 µM.
- system: MET (cMet) (Homo sapiens, UniProt P08581)
- Sequence (P08581 25-1390): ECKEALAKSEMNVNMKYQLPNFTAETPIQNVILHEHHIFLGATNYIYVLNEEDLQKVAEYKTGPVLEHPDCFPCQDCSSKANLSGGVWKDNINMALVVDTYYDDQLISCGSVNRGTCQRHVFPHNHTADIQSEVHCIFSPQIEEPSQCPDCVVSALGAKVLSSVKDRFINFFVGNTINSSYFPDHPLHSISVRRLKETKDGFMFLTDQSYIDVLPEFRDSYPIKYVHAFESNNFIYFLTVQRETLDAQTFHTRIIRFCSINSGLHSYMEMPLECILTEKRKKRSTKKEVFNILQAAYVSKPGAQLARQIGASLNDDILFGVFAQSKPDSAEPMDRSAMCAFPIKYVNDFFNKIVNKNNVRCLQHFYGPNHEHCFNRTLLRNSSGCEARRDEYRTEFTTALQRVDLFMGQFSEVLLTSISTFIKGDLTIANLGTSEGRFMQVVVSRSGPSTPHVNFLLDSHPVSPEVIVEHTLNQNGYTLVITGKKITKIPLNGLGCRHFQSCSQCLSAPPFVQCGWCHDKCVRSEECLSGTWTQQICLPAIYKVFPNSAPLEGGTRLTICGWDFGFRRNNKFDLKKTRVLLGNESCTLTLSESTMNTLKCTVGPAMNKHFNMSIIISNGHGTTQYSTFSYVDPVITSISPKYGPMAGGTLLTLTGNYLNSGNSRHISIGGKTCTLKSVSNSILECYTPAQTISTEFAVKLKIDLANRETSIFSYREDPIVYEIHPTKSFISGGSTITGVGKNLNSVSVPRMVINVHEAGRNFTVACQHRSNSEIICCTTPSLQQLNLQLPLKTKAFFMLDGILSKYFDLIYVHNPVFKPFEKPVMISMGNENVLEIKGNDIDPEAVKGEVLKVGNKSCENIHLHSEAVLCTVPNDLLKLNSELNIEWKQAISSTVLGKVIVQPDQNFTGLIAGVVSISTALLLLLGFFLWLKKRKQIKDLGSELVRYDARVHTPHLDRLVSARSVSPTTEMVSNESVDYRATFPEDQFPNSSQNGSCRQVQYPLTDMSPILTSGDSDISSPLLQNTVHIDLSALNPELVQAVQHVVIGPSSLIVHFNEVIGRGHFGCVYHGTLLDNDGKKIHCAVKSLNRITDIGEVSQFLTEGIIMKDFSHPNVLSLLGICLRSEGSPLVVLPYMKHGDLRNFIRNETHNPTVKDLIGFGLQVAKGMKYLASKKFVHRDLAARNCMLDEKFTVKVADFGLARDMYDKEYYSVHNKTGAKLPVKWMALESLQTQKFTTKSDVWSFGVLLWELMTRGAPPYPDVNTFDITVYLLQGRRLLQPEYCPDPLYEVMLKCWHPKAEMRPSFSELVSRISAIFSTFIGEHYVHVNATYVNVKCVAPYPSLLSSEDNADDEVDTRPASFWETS
- measurementNotes: High-throughput kinase assay
- Format: biochemical
- runParameters: 100 nM; read-out: Percent inhibition of kinase activity in vitro, MET (cMet)
Provide only the numeric value, understood in %.

## Task // fetch inhibition at 0.1 µM; item: O=C1c2ccccc2CN1c1nc(NC2CCCCC2)c2nc[nH]c2n1 [SLLN-6C, reference compound] ; system: MET (cMet) (Homo sapiens, UniProt P08581)
## Result 0

## Task // fetch inhibition at 0.1 µM; item: C[C@@H]1C(Nc2nc(-n3[se]c4ccccc4c3=O)nc3[nH]cnc23)C[C@H]2C[C@@H]1C2(C)C (some centres unmarked) ; system: MET (cMet) (Homo sapiens, UniProt P08581)
## Result 0

## Task // fetch inhibition at 0.1 µM; item: O=c1c2ccccc2[se]n1-c1nc(NC2CC[Se]C2)c2nc[nH]c2n1 (centres unmarked) ; system: MET (cMet) (Homo sapiens, UniProt P08581)
## Result 1

## Task // fetch inhibition at 0.1 µM; item: `O=c1c2ccccc2[se]n1-c1nc(N[C@H]2CC[Se]C2)c2nc[nH]c2n1` ; system: MET (cMet) (Homo sapiens, UniProt P08581)
## Result 4

## Task // fetch inhibition at 0.1 µM; item: `O=c1c2ccccc2[se]n1-c1nc(NC2CCCCC2)c2nc[nH]c2n1` ; system: MET (cMet) (Homo sapiens, UniProt P08581)
## Result 2

* * *

- system: BRAF-ZLYTE-100 (Homo sapiens, UniProt P15056)
- Sequence (P15056 whole entry): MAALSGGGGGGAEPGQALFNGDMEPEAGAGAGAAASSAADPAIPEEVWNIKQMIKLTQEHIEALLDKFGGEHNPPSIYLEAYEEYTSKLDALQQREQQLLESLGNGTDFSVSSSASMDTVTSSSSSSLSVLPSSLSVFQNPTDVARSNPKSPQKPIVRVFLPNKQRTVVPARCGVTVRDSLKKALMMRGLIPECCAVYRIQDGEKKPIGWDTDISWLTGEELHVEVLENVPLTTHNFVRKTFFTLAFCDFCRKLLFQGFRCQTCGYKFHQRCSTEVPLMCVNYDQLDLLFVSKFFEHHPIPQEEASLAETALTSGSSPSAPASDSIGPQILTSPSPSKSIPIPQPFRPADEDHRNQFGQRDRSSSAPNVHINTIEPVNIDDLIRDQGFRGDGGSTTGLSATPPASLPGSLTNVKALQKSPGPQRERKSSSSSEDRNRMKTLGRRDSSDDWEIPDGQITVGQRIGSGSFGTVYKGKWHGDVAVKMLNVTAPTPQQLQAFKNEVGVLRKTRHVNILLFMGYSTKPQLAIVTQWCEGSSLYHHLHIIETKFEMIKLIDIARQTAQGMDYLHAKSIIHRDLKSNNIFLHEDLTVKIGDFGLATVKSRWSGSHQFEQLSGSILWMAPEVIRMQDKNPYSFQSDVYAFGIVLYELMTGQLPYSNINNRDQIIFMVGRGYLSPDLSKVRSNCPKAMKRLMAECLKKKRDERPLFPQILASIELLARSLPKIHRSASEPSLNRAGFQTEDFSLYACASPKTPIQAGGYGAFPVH
- measurementNotes: High-throughput kinase assay
- Type: biochemical
- runParameters: 100 nM; read-out: Percent inhibition of kinase activity in vitro, BRAF-ZLYTE-100
testReadout: inhibition at 0.1 µM (%)
Provide only the numeric value, understood in %.

## Task Let me know recorded inhibition at 0.1 µM for O=c1c2ccccc2[se]n1-c1nc(NC2CC[Se]C2)c2nc[nH]c2n1 (centres unmarked) [Compound 2] , thanks.
## Result 0

## Task Let me know recorded inhibition at 0.1 µM for O=c1c2ccccc2[se]n1-c1nc(NC2CCCCC2)c2nc[nH]c2n1 [Compound 1] , thanks.
## Result 1

## Task Let me know recorded inhibition at 0.1 µM for C[C@@H]1C(Nc2nc(-n3[se]c4ccccc4c3=O)nc3[nH]cnc23)C[C@H]2C[C@@H]1C2(C)C (some centres unmarked) [Compound 3] , thanks.
## Result 0

## Task Let me know recorded inhibition at 0.1 µM for O=C1c2ccccc2CN1c1nc(NC2CCCCC2)c2nc[nH]c2n1 [SLLN-6C, reference compound] , thanks.
## Result 1

## Task Let me know recorded inhibition at 0.1 µM for O=c1c2ccccc2[se]n1-c1nc(N[C@H]2CC[Se]C2)c2nc[nH]c2n1 [Compound 4] , thanks.
## Result 0

* * *

For each of the compounds below, state its inhibition at 0.1 µM.
- system: AURKA (Aurora A) (Homo sapiens, UniProt O14965)
- Sequence (O14965 whole entry): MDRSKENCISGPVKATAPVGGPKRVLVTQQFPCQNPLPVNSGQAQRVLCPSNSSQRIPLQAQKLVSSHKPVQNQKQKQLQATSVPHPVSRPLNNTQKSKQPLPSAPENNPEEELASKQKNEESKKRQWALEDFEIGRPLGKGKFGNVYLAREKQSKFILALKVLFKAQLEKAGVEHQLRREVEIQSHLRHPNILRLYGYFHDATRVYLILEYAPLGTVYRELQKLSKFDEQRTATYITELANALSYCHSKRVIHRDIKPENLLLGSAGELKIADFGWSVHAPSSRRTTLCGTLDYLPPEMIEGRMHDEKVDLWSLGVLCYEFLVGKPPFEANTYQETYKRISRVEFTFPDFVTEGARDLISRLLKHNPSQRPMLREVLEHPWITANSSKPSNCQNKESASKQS
- measurementNotes: High-throughput kinase assay
- Format: biochemical
- runParameters: 100 nM; read-out: Percent inhibition of kinase activity in vitro, AURKA (Aurora A)
Provide only the numeric value, understood in %.

## Task // fetch inhibition at 0.1 µM; item: C[C@@H]1C(Nc2nc(-n3[se]c4ccccc4c3=O)nc3[nH]cnc23)C[C@H]2C[C@@H]1C2(C)C (some centres unmarked) ; system: AURKA (Aurora A) (Homo sapiens, UniProt O14965)
## Result 78

## Task // fetch inhibition at 0.1 µM; item: `O=c1c2ccccc2[se]n1-c1nc(NC2CCCCC2)c2nc[nH]c2n1` ; system: AURKA (Aurora A) (Homo sapiens, UniProt O14965)
## Result 89

## Task // fetch inhibition at 0.1 µM; item: `O=c1c2ccccc2[se]n1-c1nc(N[C@H]2CC[Se]C2)c2nc[nH]c2n1` ; system: AURKA (Aurora A) (Homo sapiens, UniProt O14965)
## Result 95

## Task // fetch inhibition at 0.1 µM; item: O=C1c2ccccc2CN1c1nc(NC2CCCCC2)c2nc[nH]c2n1 [SLLN-6C, reference compound] ; system: AURKA (Aurora A) (Homo sapiens, UniProt O14965)
## Result 4

## Task // fetch inhibition at 0.1 µM; item: O=c1c2ccccc2[se]n1-c1nc(NC2CC[Se]C2)c2nc[nH]c2n1 (centres unmarked) ; system: AURKA (Aurora A) (Homo sapiens, UniProt O14965)
## Result 93

* * *

For each of the compounds below, state its inhibition at 0.1 µM.
- system: AURKC (Aurora C) (Homo sapiens, UniProt Q9UQB9)
- Sequence (Q9UQB9 1-309): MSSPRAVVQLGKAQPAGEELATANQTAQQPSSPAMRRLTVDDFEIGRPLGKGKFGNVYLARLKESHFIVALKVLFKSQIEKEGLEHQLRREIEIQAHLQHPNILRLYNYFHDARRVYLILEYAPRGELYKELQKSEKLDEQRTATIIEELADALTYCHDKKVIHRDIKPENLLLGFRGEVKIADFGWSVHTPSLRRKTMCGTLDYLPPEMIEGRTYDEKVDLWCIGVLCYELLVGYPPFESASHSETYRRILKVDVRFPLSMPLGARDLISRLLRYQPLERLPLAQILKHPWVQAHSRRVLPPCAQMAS
- measurementNotes: High-throughput kinase assay
- Assay type: biochemical
- runParameters: 100 nM; read-out: Percent inhibition of kinase activity in vitro, AURKC (Aurora C)
Provide only the numeric value, understood in %.

## Task Let me know recorded inhibition at 0.1 µM for O=c1c2ccccc2[se]n1-c1nc(NC2CC[Se]C2)c2nc[nH]c2n1 (centres unmarked) , thanks.
## Result 0

## Task Let me know recorded inhibition at 0.1 µM for `O=c1c2ccccc2[se]n1-c1nc(NC2CCCCC2)c2nc[nH]c2n1` , thanks.
## Result 2

## Task Let me know recorded inhibition at 0.1 µM for O=C1c2ccccc2CN1c1nc(NC2CCCCC2)c2nc[nH]c2n1 [SLLN-6C, reference compound] , thanks.
## Result 0

## Task Let me know recorded inhibition at 0.1 µM for C[C@@H]1C(Nc2nc(-n3[se]c4ccccc4c3=O)nc3[nH]cnc23)C[C@H]2C[C@@H]1C2(C)C (some centres unmarked) , thanks.
## Result 0

## Task Let me know recorded inhibition at 0.1 µM for `O=c1c2ccccc2[se]n1-c1nc(N[C@H]2CC[Se]C2)c2nc[nH]c2n1` , thanks.
## Result 0

* * *

For each of the compounds below, state its inhibition at 0.1 µM.
- system: PIK3CA/PIK3R1 (Homo sapiens, UniProt P42336)
- Sequence (P42336 whole entry): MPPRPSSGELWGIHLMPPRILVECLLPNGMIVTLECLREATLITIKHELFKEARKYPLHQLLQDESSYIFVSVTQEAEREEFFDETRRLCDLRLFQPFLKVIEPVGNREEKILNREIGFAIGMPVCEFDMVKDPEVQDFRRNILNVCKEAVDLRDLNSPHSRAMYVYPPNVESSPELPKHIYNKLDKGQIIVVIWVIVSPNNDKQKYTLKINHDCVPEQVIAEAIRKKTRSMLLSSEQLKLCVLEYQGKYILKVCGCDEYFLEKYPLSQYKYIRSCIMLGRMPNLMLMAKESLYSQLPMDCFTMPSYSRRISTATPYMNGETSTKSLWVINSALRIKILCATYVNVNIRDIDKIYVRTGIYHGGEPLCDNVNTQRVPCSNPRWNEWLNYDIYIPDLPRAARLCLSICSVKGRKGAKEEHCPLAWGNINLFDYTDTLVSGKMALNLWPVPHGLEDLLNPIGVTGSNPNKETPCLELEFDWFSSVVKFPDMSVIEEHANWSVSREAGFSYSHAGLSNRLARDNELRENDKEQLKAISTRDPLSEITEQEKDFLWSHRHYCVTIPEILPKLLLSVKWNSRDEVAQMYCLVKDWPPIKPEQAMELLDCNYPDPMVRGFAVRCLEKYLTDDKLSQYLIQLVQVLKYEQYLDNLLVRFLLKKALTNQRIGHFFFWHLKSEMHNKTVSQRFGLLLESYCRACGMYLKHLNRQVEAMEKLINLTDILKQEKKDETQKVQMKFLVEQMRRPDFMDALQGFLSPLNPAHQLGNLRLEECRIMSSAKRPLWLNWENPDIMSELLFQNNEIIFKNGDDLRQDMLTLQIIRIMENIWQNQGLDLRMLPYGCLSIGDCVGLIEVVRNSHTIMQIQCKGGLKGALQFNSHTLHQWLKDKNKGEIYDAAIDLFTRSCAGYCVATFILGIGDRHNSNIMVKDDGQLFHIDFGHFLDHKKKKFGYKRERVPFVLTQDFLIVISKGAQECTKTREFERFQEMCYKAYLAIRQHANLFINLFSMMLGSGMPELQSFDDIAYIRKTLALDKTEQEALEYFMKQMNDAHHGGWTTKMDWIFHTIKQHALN
- Sequence (P27986 whole entry partner): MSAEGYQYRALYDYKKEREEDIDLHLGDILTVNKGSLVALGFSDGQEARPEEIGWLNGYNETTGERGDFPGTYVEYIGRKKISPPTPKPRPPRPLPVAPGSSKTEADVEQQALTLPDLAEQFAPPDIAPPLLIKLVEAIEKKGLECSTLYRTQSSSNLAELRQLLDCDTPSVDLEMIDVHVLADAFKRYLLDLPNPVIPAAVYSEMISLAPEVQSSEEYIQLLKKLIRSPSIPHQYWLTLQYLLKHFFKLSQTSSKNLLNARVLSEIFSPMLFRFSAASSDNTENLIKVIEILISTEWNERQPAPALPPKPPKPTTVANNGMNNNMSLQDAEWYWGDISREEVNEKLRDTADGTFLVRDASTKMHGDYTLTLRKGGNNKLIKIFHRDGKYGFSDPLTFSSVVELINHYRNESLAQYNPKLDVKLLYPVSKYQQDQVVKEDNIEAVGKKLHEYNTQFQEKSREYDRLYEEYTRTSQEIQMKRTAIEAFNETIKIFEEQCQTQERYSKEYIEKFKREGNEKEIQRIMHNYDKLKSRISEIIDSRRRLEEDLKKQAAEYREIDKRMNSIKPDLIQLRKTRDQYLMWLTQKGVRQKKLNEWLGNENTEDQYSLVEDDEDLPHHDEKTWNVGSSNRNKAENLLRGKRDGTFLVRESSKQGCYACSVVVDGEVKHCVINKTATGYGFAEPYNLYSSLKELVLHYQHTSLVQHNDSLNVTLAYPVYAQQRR
- measurementNotes: High-throughput kinase assay
- Type: biochemical
- runParameters: 100 nM; read-out: Percent inhibition of kinase activity in vitro, PIK3CA/PIK3R1
- Method: Screening of Compounds 1-4 against several kinases identified two prominent targets of these compounds as the Aurora A kinase and calcium dependent protein kinase C isoforms α, βI, βII and […] (Tables 1 to 3). IC50s for these two targets were obtained by plotting inhibition levels at 500 nM, 100 nM, 50 nM and 10 nM (FIG. 3). […]
Report as: number unit

## Task // fetch inhibition at 0.1 µM; item: C[C@@H]1C(Nc2nc(-n3[se]c4ccccc4c3=O)nc3[nH]cnc23)C[C@H]2C[C@@H]1C2(C)C (some centres unmarked) ; system: PIK3CA/PIK3R1 (Homo sapiens, UniProt P42336)
## Result 12%

## Task // fetch inhibition at 0.1 µM; item: `O=c1c2ccccc2[se]n1-c1nc(N[C@H]2CC[Se]C2)c2nc[nH]c2n1` ; system: PIK3CA/PIK3R1 (Homo sapiens, UniProt P42336)
## Result 0%

## Task // fetch inhibition at 0.1 µM; item: O=c1c2ccccc2[se]n1-c1nc(NC2CC[Se]C2)c2nc[nH]c2n1 (centres unmarked) ; system: PIK3CA/PIK3R1 (Homo sapiens, UniProt P42336)
## Result 0%

## Task // fetch inhibition at 0.1 µM; item: `O=c1c2ccccc2[se]n1-c1nc(NC2CCCCC2)c2nc[nH]c2n1` ; system: PIK3CA/PIK3R1 (Homo sapiens, UniProt P42336)
## Result 0%

## Task // fetch inhibition at 0.1 µM; item: O=C1c2ccccc2CN1c1nc(NC2CCCCC2)c2nc[nH]c2n1 [SLLN-6C, reference compound] ; system: PIK3CA/PIK3R1 (Homo sapiens, UniProt P42336)
## Result 0%
